tested on: HEK-293T; assay: Multiplex assay against HEK293T; assay type: toxicity, cell-based; conditions: human, 48 h, 10 µM, compound concentration 10 uM, replicate 1
Answer f if Population Pyknosed Nuclei (%) is under 40%, and t if it is 40% or more.

Field: example entries. Status: answers known.
- molecule: "O=C(Nc1ccc(Cl)cc1)Nc1cccc(-c2cccc(N3CCCC3)n2)c1"
  label_value: "f"
- molecule: "COc1cc(N2CCN(C)CC2)ccc1Nc1ncc2c(n1)N(C)c1ccccc1C(=O)N2C"
  label_value: "t"
- molecule: "O=C(Nc1ccc(-n2nc(-c3cccnc3)cc2C(F)(F)F)cn1)c1ccc(-c2ccccc2)c(F)c1"
  label_value: "t"
- molecule: "Cc1ccc(C(=O)Nc2cccc(C(F)(F)F)c2)cc1Nc1nc(-c2cccnc2)nc2c1cnn2C"
  label_value: "t"
- molecule: "Cc1cn(-c2cc(NC(=O)c3ccc(C)c(Nc4nccc(-c5cccnc5)n4)c3)cc(C(F)(F)F)c2)cn1"
  label_value: "f"
- molecule: "CCOC(=O)c1c(C)[nH]c2ccc3c(c12)CN1CCc2cc(OC)ccc2C1O3 (stereo not given)"
  label_value: "t"
- molecule: "O=C(Cc1ccc(-c2ccc(OCCN3CCOCC3)cc2)cn1)NCc1ccccc1"
  label_value: "t"
- molecule: "Cl.O=C(c1ccc(Nc2nccc(-c3cc4ccccc4s3)n2)cc1)N1CCC(N2CCCC2)CC1"
  label_value: "t"
- molecule: "CCOc1cc2ncc(C#N)c(Nc3ccc(OCc4ccccn4)c(Cl)c3)c2cc1NC(=O)/C=C/CN(C)C"
  label_value: "f"
- molecule: "Cl.O=c1c2cccn2c2ccccc2n1CCCN1CCC(c2ccc(Cl)cc2)CC1"
  label_value: "t"

input: Item CN1CCN(C(=O)C(C)(C)c2ccc(C(=O)Nc3cn4cc(-c5ccncc5)ccc4n3)cc2)CC1 with Population Pyknosed Nuclei (%) of 40% or above?
output: t

input: Is it the case that CN(C)C(=O)C(CCN1CCC(O)(c2ccc(Cl)cc2)CC1)(c1ccccc1)c1ccccc1.Cl [LOPERAMIDE HYDROCHLORIDE] has Population Pyknosed Nuclei (%) reaching or exceeding 40%?
output: t

input: Is the recorded value of Population Pyknosed Nuclei (%) equal to or greater than 40% for this molecule? O=C1N/C(=N/c2ccccc2F)S/C1=C\c1ccc(C(=O)O)cc1
output: f

input: API: above_or_equal(metric=Population Pyknosed Nuclei (%), cutoff=40%) for item CCn1c(=O)c(-c2ccc(-c3cncs3)cc2Cl)cc2cnc(Nc3ccc(N4CCN(C)CC4)cc3)nc21
output: f

input: Determine whether measured Population Pyknosed Nuclei (%) meets or exceeds 40% for CNc1cc(Oc2cc(C(=O)Nc3cc(N4CCN(C)CC4)cc(C(F)(F)F)c3)ccc2C)ncn1
output: t

input: Hi team, for Cc1cc(C)c(S(=O)(=O)N(Cc2ccc(-c3cccc(S(C)(=O)=O)c3)cc2)Cc2ccc(C(F)(F)F)o2)c(C)c1 , is the recorded Population Pyknosed Nuclei (%) at or above 40%?
output: f

input: Say whether CCCn1c(=O)c2[nH]c(-c3cnn(Cc4cccc(C(F)(F)F)c4)c3)nc2n(CC)c1=O shows Population Pyknosed Nuclei (%) of 40% or more.
output: t

input: Given O=C(Nc1ccc(-c2ccnc(Nc3ccc(N4CCOCC4)cc3)n2)cc1)[C@@H]1CCCN1 , state whether its Population Pyknosed Nuclei (%) is at least 40%.
output: f

input: Given Cl.Oc1ccc2c3c1O[C@H]1c4[nH]c5c(c4C[C@@]4(O)[C@@H](C2)N(CC2CC2)CC[C@]314)C[C@@]1(O)[C@H]2Cc3ccc(O)c4c3[C@@]1(CCN2CC1CC1)[C@H]5O4 , state whether its Population Pyknosed Nuclei (%) is at least 40%.
output: f

input: hey, is Population Pyknosed Nuclei (%) for this one >= 40%? O=C1NC(=O)C(c2cnc3ccccn23)=C1c1cn2c3c(cc(F)cc13)CN(C(=O)N1CCCCC1)CC2
output: f

input: Hello, I need to know if COCC(=O)NC/C=C/c1ccc2ncnc(Nc3ccc(Oc4ccc(C)nc4)c(C)c3)c2c1 has measured Population Pyknosed Nuclei (%) not below 40%. Thanks!
output: t

input: For this molecule, is measured Population Pyknosed Nuclei (%) 40% or higher? CN1CCC(=C2c3ccccc3CC(=O)c3sccc32)CC1.O=C(O)/C=C/C(=O)O [KETOTIFEN FUMARATE]
output: f

---

Measured Population Pyknosed Nuclei (%), listed per entry.
system: U2OS; experiment: Multiplex assay against U2OS; format: toxicity, cell-based; details: human, 12 h, 1 µM, compound concentration 1 uM, replicate 2
Don't forget the unit after the number, please.

- compound: "CCCn1c(=O)c2[nH]c(-c3cnn(Cc4cccc(C(F)(F)F)c4)c3)nc2n(CC)c1=O"
  target_desc: "U2OS"
  result: "7%"
- compound: "CCCS(=O)(=O)c1nc(NC2CC2)cc(-c2ccc3c(ccn3C3CC(C)(C)NC(C)(C)C3)c2)n1"
  target_desc: "U2OS"
  result: "13%"
- compound: "NC(=O)c1cccc(-c2cc(Nc3ccc(OC(F)(F)F)cc3)ncn2)c1"
  target_desc: "U2OS"
  result: "1%"
- compound: "CCOC(=O)c1c(C)[nH]c2ccc3c(c12)CN1CCc2cc(OC)ccc2C1O3 (centres undefined)"
  target_desc: "U2OS"
  result: "14%"
- compound: "CCCS(=O)(=O)Nc1ccc(F)c(C(=O)c2c[nH]c3ncc(Cl)cc23)c1F"
  target_desc: "U2OS"
  result: "3%"

input: Quote Population Pyknosed Nuclei (%) reported for Cl.O=C(c1ccc(Nc2nccc(-c3cc4ccccc4s3)n2)cc1)N1CCC(N2CCCC2)CC1 please.
output: 4%

input: Report measured Population Pyknosed Nuclei (%); entry is Cl.O=c1c2cccn2c2ccccc2n1CCCN1CCC(c2ccc(Cl)cc2)CC1
output: 9%

input: Indicate the recorded Population Pyknosed Nuclei (%) value for this compound: CCc1cccc(CC)c1NC(=O)c1nn(C)c2c1CCc1cnc(Nc3ccc(N4CCN(C)CC4)cc3OC)nc1-2
output: 68%

input: Please list Population Pyknosed Nuclei (%) recorded for the compound CNc1cc(Oc2cc(C(=O)Nc3cc(N4CCN(C)CC4)cc(C(F)(F)F)c3)ccc2C)ncn1
output: 16%

---

system: Fibroblast; experiment: Multiplex assay against human fibroblast; format: toxicity, cell-based; settings: 12 h, 1 µM, compound concentration 1 uM, replicate 2
readout: Population Normal (%)
Number in %, nothing else.

- molecule: "COc1cccc2cc(-c3nc([C@H]4CC[C@H](C(=O)O)CC4)n4ncnc(N)c34)[nH]c12 [OSI-027]"
  Population Normal (%): 73

input: Give me measured Population Normal (%), please, for this molecule: Cl.O=C(c1ccc(Nc2nccc(-c3cc4ccccc4s3)n2)cc1)N1CCC(N2CCCC2)CC1
output: 63

input: Please report Population Normal (%) for the following molecule: O=C(Nc1ccc(-c2ccnc(Nc3ccc(N4CCOCC4)cc3)n2)cc1)[C@@H]1CCCN1
output: 92

input: Provide Population Normal (%) value for the following molecule: CN1C2CCC1CC(OC(c1ccc(F)cc1)c1ccc(F)cc1)C2.Cl (stereo not drawn)
output: 97

---

tested on: U2OS; test: Multiplex assay against U2OS; format: toxicity, cell-based; details: human, 24 h, 10 µM, compound concentration 10 uM, replicate 2
// assign fulfilled if Population Hoechst High Intensity Objects (%) falls strictly below 8%, else not fulfilled (ties count as not fulfilled)

- compound: "CNc1cc(Oc2cc(C(=O)Nc3cc(N4CCN(C)CC4)cc(C(F)(F)F)c3)ccc2C)ncn1"
  label_value: "not fulfilled"
- compound: "CN1CCN(C(=O)C(C)(C)c2ccc(C(=O)Nc3cn4cc(-c5cc(C(C)(C)C)cc(C(C)(C)C)c5)ccc4n3)cc2)CC1"
  label_value: "not fulfilled"
- compound: "Cl.O=c1c2cccn2c2ccccc2n1CCCN1CCC(c2ccc(Cl)cc2)CC1"
  label_value: "fulfilled"

input: State whether 8% exceeds Population Hoechst High Intensity Objects (%) recorded for CCOC(=O)c1c(C)[nH]c2ccc3c(c12)CN1CCc2cc(OC)ccc2C1O3 (stereo not given) .
output: not fulfilled

---

// values below are reported Population Pyknosed Nuclei (%)
test system: HEK-293T; assay: Multiplex assay against HEK293T; assay type: toxicity, cell-based; conditions: human, 12 h, 1 µM, compound concentration 1 uM, replicate 1
Numeric answer only, unit % assumed.

- compound: "O=C(Nc1ccc(Cl)cc1)Nc1cccc(-c2cccc(N3CCCC3)n2)c1"
  target_desc: "HEK-293T"
  unit_info: "%"
  Population Pyknosed Nuclei (%): 45

Could you now look at the following compound, please?
input: Look up and state reported Population Pyknosed Nuclei (%) for Cl.O=C(c1ccc(Nc2nccc(-c3cc4ccccc4s3)n2)cc1)N1CCC(N2CCCC2)CC1
output: 29

---

test system: HEK-293T; assay: Multiplex assay against HEK293T; assay type: toxicity, cell-based; details: human, 24 h, 1 µM, compound concentration 1 uM, replicate 2
Population Mitochondria Different-Phenotype (%) listing for selected compounds.
Include the unit after the number when you answer.

Below are worked cases with known answers.
- compound: "COc1ccc(-c2ccc3c(N4CCOCC4)nc(N4C[C@@H](C)O[C@@H](C)C4)nc3n2)cc1CO [Ku-0063794]"
  result: "0%"
- compound: "CN(C)C(=O)C(CCN1CCC(O)(c2ccc(Cl)cc2)CC1)(c1ccccc1)c1ccccc1.Cl [LOPERAMIDE HYDROCHLORIDE]"
  result: "94%"
- compound: "CCCS(=O)(=O)Nc1ccc(F)c(C(=O)c2c[nH]c3ncc(Cl)cc23)c1F [PLX-4720]"
  result: "3%"
- compound: "O=C1N/C(=N/c2ccccc2F)S/C1=C\\c1ccc(C(=O)O)cc1"
  result: "13%"
- compound: "CCOC(=O)c1c(C)[nH]c2ccc3c(c12)CN1CCc2cc(OC)ccc2C1O3 (stereo unspecified)"
  result: "91%"
- compound: "Cn1nc(C(F)(F)F)cc1-c1cnc(N2CCc3cc(S(=O)(=O)Nc4c(F)cc(Cl)cc4F)cc(N4CCCC4=O)c32)nc1 [TP-020]"
  result: "6%"

input: Given the compound CCn1cc(-c2ccnc3[nH]c(-c4cccc(CN(C)C)c4)cc23)c(-c2ccc(NC(=O)N(C)C)cc2)n1 [GSK-1070916] , write its reported Population Mitochondria Different-Phenotype (%).
output: 3%

input: Give recorded Population Mitochondria Different-Phenotype (%). CN[C@@H]1C[C@H]2O[C@@](C)([C@@H]1OC)n1c3ccccc3c3c4c(c5c6ccccc6n2c5c31)C(=O)NC4 [STAUROSPORINE]
output: 25%

input: Return value of Population Mitochondria Different-Phenotype (%) for input CCCn1c(=O)c2[nH]c(-c3cnn(Cc4cccc(C(F)(F)F)c4)c3)nc2n(CC)c1=O [GS 6201] , no commentary.
output: 12%

input: Identify measured Population Mitochondria Different-Phenotype (%) corresponding to C=CCn1c(=O)c2cnc(Nc3ccc(N4CCN(C)CC4)cc3)nc2n1-c1cccc(C(C)(C)O)n1 [ADAVOSERTIB]
output: 14%
